# testSystem: MAST3, O60307
# Sequence (O60307 945-1048): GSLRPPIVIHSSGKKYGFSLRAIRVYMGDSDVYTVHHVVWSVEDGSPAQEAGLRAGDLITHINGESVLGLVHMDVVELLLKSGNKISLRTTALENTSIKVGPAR
# testDescription: holdup assay
# Design: key: below the threshold = too weak to quantify, mostly under pKd 3.1 to 4
# conditions: plain residues with an end cap or a label only (N-terminal biotin on a linker: ttds)
measuredMetric: pKd

binder	measuredMetric	observedValue
SSRTRRETQL [HPV16-E6, P03126]	pKd	below the threshold
RSLEEEESQL [GRASP, Q7Z6J2]	pKd	below the threshold
SRPQRTQTQV [HPV67-E6, A4U7F2]	pKd	below the threshold
STLTIFETAL [ABCC4, O15439]	pKd	4.29
